# log10 of IC50 per record follows
Target: T1, human calcitonin receptor (human, UniProt P30988 25-474)
T1 construct: whole, on cells; Membranes of BHK cells stably transfected with the human calcitonin receptor (Assay VII); also called hCTR; hCT
T1 sequence (looked up): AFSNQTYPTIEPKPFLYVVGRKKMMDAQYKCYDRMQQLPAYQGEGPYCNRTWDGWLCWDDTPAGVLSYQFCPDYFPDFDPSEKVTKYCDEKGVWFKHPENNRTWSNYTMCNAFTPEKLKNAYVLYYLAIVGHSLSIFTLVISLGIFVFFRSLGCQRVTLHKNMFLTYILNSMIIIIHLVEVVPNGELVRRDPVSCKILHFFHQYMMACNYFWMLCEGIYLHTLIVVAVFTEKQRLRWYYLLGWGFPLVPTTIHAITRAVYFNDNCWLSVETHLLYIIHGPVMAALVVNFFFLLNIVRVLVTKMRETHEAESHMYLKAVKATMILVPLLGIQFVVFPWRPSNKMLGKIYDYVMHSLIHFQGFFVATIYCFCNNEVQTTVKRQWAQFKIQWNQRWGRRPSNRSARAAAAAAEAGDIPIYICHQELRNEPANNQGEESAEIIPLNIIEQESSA
Assay: SPA competition against 125I-calcitonin, membranes of BHK cells with human calcitonin receptor (Assay VII)
Numbered stars: 1 amine (or outer) side, 2 acyl side, 3 side chain; on linkers, the order of the positions; unused ones are H or OH. Bridge positions count the residues as written; N and C are the ends. Side chains are listed from the residue outwards. Ends that are not written are not given here. * marks the point of attachment. C20 diacid = O=C(O)CCCCCCCCCCCCCCCCCCC(=O)*; γGlu = O=C(O)[C@H](CCC(=O)[*:2])N[*:1]
Units before log transform: nM; reported quantity: IC50; transform: log10.

K([γGlu-γGlu-C20 diacid])CNTATCATQRLADFLRHSSPNFGAIPSSTNVGPRTY-NH2 (disulfide 2-7, also called compound 130) :: 2.10
{C20 diacid-γGlu}-GRCNTATCATQRLAAFLRHSSPNFGAIPSSTNVGPNTY-NH2 (disulfide 3-8) :: 0.48

In: What log10 of IC50 value was documented for this binder, K([γGlu-C20 diacid])CNTATCATQRLAEFLRHSSPNFGAIPSSTNVGPHTY-NH2 (disulfide 2-7) ?
Out: 0.58

In: What log10 of IC50 value was documented for this binder, K([γGlu-γGlu-C20 diacid])CNTATCATQRLADFLRHSSPNFGAIPSSTNVGPETY-NH2 (disulfide 2-7) ?
Out: 0.93

In: What log10 of IC50 value was documented for this binder, K([γGlu-γGlu-C20 diacid])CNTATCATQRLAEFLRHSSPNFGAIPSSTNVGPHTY-NH2 (disulfide 2-7 (inferred)) ?
Out: 1.01

In: What log10 of IC50 value was documented for this binder, K([γGlu-γGlu-C20 diacid])CNTATCATQRLAEFLRHSSPNFGAILSSTPVGPETY-NH2 (disulfide 2-7 (inferred)) ?
Out: 0.19
